Taken from patent US6689754B1.

Recorded measurements of IC50, one per entry
system: Human vitronectin receptor (αvβ3) (Homo sapiens, UniProt P05106+P06756)
Construct: Human vitronectin receptor (αvβ3) was purified from human placenta
experiment.notes: Vitronectin adhesion assay: solid phase receptor assay, competition with biotinylated vitronectin
measurement.parameters: purified human vitronectin receptor; 1 nM biotinylated vitronectin
Experimental: Vitronectin Adhesion Assay Human vitronectin receptor (αvβ3) was purified from human placenta as previously described [Pytela et al., Methods in Enzymology, 144:475-489 (1987)]. […] This assay was essentially the same as previously reported [Niiya et al., Blood, 70:475-483 (1987)]. […] The plate was read with a microtiter plate reader at a wavelength of 450 nm and when the maximum-binding control wells reached an absorbance of about 1.0, the final A450 were recorded for analysis. […]
Counter-ions that a name gives are not always drawn.
Answer with a number only, understood to be in nM.

Consider O=C(O)CC(NC(=O)CNC(=O)c1c[nH]c(=O)c(NC2=NCCN2)c1)c1cc(Cl)cc(Cl)c1O (stereo not shown) [Example 20, (trifluoroacetate) salt] . Its measured IC50 is 0.32

Here is the next item to consider.
IC50 in this record for O=C(O)C[C@H](NC(=O)CNC(=O)c1cncc(N=C2NCC(O)CN2)c1)c1cc(Br)cc(Br)c1O (stereo partly shown) : 0.34
